Origin of measurements: PubChem BioAssay

# assayText: drug combination growth inhibition, ovarian cancer – cell-based, oncology-focused library, rucaparib conditional, profiling panel (AID 1508598)
# measurementConditions: patient-derived ovarian cancer cells, CellTiter-Glo viability, 144 h; at 0.00488 µM; OCI-P5x cells; without rucaparib; active compounds read low
viability reference
experimentalReadout: viability (%)

>>> datavalue("Cn1c(=O)c(F)c(Nc2ccc(I)cc2F)c2c(=O)n(C[C@@H](O)CO)cnc21")
76.3
>>> datavalue("OCCn1cc(-c2cnc3nnn(Cc4ccc5ncccc5c4)c3n2)cn1")
102
>>> datavalue("O=C(Cc1ccc(-c2ccc(OCCN3CCOCC3)cc2)cn1)NCc1ccccc1")
96.7
>>> datavalue("CC(C)CC(=O)Nc1n[nH]c2c1CN(C(=O)C1CCN(C)CC1)C2(C)C")
112
>>> datavalue("COc1cc(Nc2nc3ccccc3nc2NS(=O)(=O)c2ccc(NC(=O)c3ccc(C)c(OC)c3)cc2)cc(OC)c1")
101
>>> datavalue("Cc1ccc(C(=O)N(CCCN)[C@@H](c2oc3cc(Cl)ccc3c(=O)c2Cc2ccccc2)C(C)C)cc1")
18.4
>>> datavalue("CN(C)CC[C@H](CSc1ccccc1)Nc1ccc(S(=O)(=O)NC(=O)c2ccc(N3CCN(Cc4ccccc4-c4ccc(Cl)cc4)CC3)cc2)cc1[N+](=O)[O-]")
108
>>> datavalue("CCC[C@H](NC(=O)/C(C#N)=C/c1cccc(Br)n1)c1ccccc1")
114
>>> datavalue("O=C(O)c1ccc(O)c2ncccc12")
98.1

----------
viability reference
# assayText: drug combination growth inhibition, ovarian cancer – cell-based, oncology-focused library, rucaparib conditional, profiling panel (AID 1508598)
# measurementConditions: patient-derived ovarian cancer cells, CellTiter-Glo viability, 144 h; at 0.00122 µM; OCI-C5x cells; without rucaparib; active compounds read low
experimentalReadout: viability (%)

>>> datavalue("O=C(O)CCC1CCC(c2cc(F)ccc2F)(S(=O)(=O)c2ccc(Cl)cc2)CC1 (centres undefined)")
121
>>> datavalue("CN1CCN(c2nc(C3=C(c4c[nH]c5ccccc45)C(=O)NC3=O)c3ccccc3n2)CC1")
119
>>> datavalue("C=CC(=O)N1CCC[C@@H](n2nc(-c3ccc(Oc4ccccc4)cc3)c3c(N)ncnc32)C1")
118
>>> datavalue("CCN(CCO)CCCOc1ccc2c(Nc3cc(CC(=O)Nc4cccc(F)c4)[nH]n3)ncnc2c1")
118
>>> datavalue("O=C(Nc1ccccc1-c1cn2c(CN3CCNCC3)csc2n1)c1cnc2ccccc2n1")
106
>>> datavalue("CCCCc1nc2cc(/C=C/C(=O)NO)ccc2n1CCN(CC)CC")
116
>>> datavalue("CCOc1cc(N2CCC(O)CC2)ccc1Nc1ncc2c(n1)N(C)c1ccccc1C(=O)N2C")
109
>>> datavalue("CN(C)CC[C@H](CSc1ccccc1)Nc1ccc(S(=O)(=O)NC(=O)c2ccc(N3CCN(Cc4ccccc4-c4ccc(Cl)cc4)CC3)cc2)cc1[N+](=O)[O-]")
124
>>> datavalue("CS(=O)(=O)N1CCN(Cc2cc3nc(-c4cccc5[nH]ncc45)nc(N4CCOCC4)c3s2)CC1")
119

----------
# assayText: drug combination growth inhibition, ovarian cancer – cell-based, oncology-focused library, rucaparib conditional, profiling panel (AID 1508598)
# measurementConditions: patient-derived ovarian cancer cells, CellTiter-Glo viability, 144 h; at 0.313 µM; OCI-C5x cells; without rucaparib
Calls of active or inactive are those of the source.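 The calls were made as follows: active = normalized viability below 100% at a tested concentration; inactive = the rest.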
Classes used: label 1 = active, label 0 = inactive

>>> assignedlabel("CCOc1cc2ncc(C#N)c(Nc3ccc(F)c(Cl)c3)c2cc1NC(=O)/C=C/CN(C)C")
"label 1"
>>> assignedlabel("Nc1cc(C(F)(F)F)c(-c2cc(N3CCOCC3)nc(N3CCOCC3)n2)cn1")
"label 0"
>>> assignedlabel("CC(C)CC(=O)Nc1n[nH]c2c1CN(C(=O)C1CCN(C)CC1)C2(C)C")
"label 0"
>>> assignedlabel("Nc1ccccc1NC(=O)c1ccc(CNc2nccc(-c3cccnc3)n2)cc1")
"label 1"
>>> assignedlabel("CC(C)(C)c1cc(NC(=O)Nc2ccc(-c3cn4c(n3)sc3cc(OCCN5CCOCC5)ccc34)cc2)no1")
"label 0"
>>> assignedlabel("CCCCCCCCc1ccc(CCC(N)(CO)CO)cc1")
"label 0"
>>> assignedlabel("O=C(NC1CCNCC1)c1[nH]ncc1NC(=O)c1c(Cl)cccc1Cl")
"label 1"
>>> assignedlabel("CCOc1cc(N2CCC(O)CC2)ccc1Nc1ncc2c(n1)N(C)c1ccccc1C(=O)N2C")
"label 0"
>>> assignedlabel("Cn1cnc2c(F)c(Nc3ccc(Br)cc3Cl)c(C(=O)NOCCO)cc21")
"label 1"
>>> assignedlabel("Cc1cccc(-c2nn3c(c2-c2ccnc4ccc(C(N)=O)cc24)CCC3)n1")
"label 0"
>>> assignedlabel("CC(C)c1ccccc1Cc1cc(C(=O)Nc2ccc(S(=O)(=O)c3ccccc3C(C)(C)C)cc2)c(O)c(O)c1O")
"label 0"
>>> assignedlabel("Oc1cccc(-c2nc(N3CCOCC3)c3oc4ncccc4c3n2)c1")
"label 0"
>>> assignedlabel("CN[C@H]1CN(c2ccc3c(=O)c(C(=O)O)cn(-c4nccs4)c3n2)C[C@@H]1OC")
"label 0"
>>> assignedlabel("CC1(C)CCC(c2ccc(Cl)cc2)=C(CN2CCN(c3ccc(C(=O)NS(=O)(=O)c4ccc(N[C@H](CCN5CCOCC5)CSc5ccccc5)c(S(=O)(=O)C(F)(F)F)c4)cc3)CC2)C1")
"label 1"
>>> assignedlabel("COc1ccc(COc2cc3oc(=O)c4cc(C(C)O)ccc4c3cc2OC)cc1 (stereo not given)")
"label 0"
>>> assignedlabel("Cc1ccc2nc(NC(=O)CSc3nc4c(c(=O)n3-c3ccccc3)SCC4)sc2c1")
"label 0"
>>> assignedlabel("O=C(c1cc(Cc2n[nH]c(=O)c3ccccc23)ccc1F)N1CCN(C(=O)C2CC2)CC1")
"label 0"
>>> assignedlabel("C=C(c1ccc(C(=O)O)cc1)c1cc2c(cc1C)C(C)(C)CCC2(C)C")
"label 0"
>>> assignedlabel("Nc1cccc2c1C(=O)N(C1CCC(=O)NC1=O)C2=O (stereo not given)")
"label 0"
>>> assignedlabel("N#CCNC(=O)c1ccc(-c2ccnc(Nc3ccc(N4CCOCC4)cc3)n2)cc1")
"label 0"
>>> assignedlabel("Cc1ccc(NC(=O)c2cccc(C(C)(C)C#N)c2)cc1Nc1ccc2ncn(C)c(=O)c2c1")
"label 0"
>>> assignedlabel("Cn1cc(CNCC2CCN(c3ncc(C(=O)NO)cn3)CC2)c2ccccc21")
"label 1"
>>> assignedlabel("COc1ccc(S(=O)(=O)Nc2cccnc2Nc2ccc(O)cc2)cc1")
"label 1"
>>> assignedlabel("CCC[C@H](Nc1nc(-c2ccc(NC(=O)NCC)c(OC)c2)ncc1C)c1cccnc1")
"label 1"
>>> assignedlabel("CCOc1ccn(-c2ccc(F)cc2)c(=O)c1C(=O)Nc1ccc(Oc2ccnc(N)c2Cl)c(F)c1")
"label 0"
